# assay_target: hALDH1a2 (Homo sapiens, UniProt O94788)
# Sequence (O94788 whole entry): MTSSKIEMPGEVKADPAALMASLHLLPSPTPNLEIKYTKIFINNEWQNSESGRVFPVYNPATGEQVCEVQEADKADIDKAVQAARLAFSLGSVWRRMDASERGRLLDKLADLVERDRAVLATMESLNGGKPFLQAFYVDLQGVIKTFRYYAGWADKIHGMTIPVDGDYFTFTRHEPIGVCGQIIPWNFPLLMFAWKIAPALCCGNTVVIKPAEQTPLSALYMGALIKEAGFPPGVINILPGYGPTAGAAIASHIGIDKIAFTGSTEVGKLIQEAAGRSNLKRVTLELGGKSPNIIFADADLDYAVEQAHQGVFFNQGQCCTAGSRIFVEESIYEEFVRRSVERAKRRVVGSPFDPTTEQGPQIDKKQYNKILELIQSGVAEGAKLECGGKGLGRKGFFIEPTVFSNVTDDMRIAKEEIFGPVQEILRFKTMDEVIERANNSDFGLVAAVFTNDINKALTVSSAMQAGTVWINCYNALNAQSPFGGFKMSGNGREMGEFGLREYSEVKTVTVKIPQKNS
# protocol_description: Aldh1a2 enzyme inhibition assay (resorufin fluorescence), human enzyme
# details: recombinant enzyme, 20° C., activity level classes
measured_property: IC50

[
  {
    "compound": "O=C(Nc1cc(F)c2c(c1)C1CC1C(=O)N2)c1ocnc1CC(F)(F)F (stereo not shown)",
    "result": "250 to 1000 nM"
  },
  {
    "compound": "O=C1CCc2cc(NC(=O)c3ccncc3-c3ccccc3)cc(Cl)c2N1",
    "result": "< 100 nM"
  },
  {
    "compound": "Cc1cccc(-c2cnccc2C(=O)Nc2cc(C)c3c(c2)CCC(=O)N3)c1",
    "result": "1000 to 5000 nM"
  },
  {
    "compound": "O=C1CCc2cc(NC(=O)c3ccncc3-c3ccccc3F)cc(Cl)c2N1",
    "result": "100 to 250 nM"
  },
  {
    "compound": "CCc1sncc1C(=O)Nc1cc(C)c2c(c1)CCC(=O)N2",
    "result": "250 to 1000 nM"
  },
  {
    "compound": "CCc1ncsc1C(=O)Nc1cc(Cl)c2c(c1)C1CC1C(=O)N2 (stereo not shown) [Compound 43]",
    "result": "1000 to 5000 nM"
  },
  {
    "compound": "Cc1cc(NC(=O)c2scnc2CC(C)(C)C)cc2c1NC(=O)CC2",
    "result": "250 to 1000 nM"
  },
  {
    "compound": "CCc1ncsc1C(=O)Nc1cc(Cl)c2c(c1)CCC(=O)N2 [Compound 83]",
    "result": "< 100 nM"
  },
  {
    "compound": "Cc1cc(NC(=O)c2ccncc2-c2cccc(O)c2)cc2c1NC(=O)CC2",
    "result": "1000 to 5000 nM"
  },
  {
    "compound": "Cc1cc(NC(=O)c2ccncc2CC(F)(F)F)cc2c1NC(=O)CS2(=O)=O",
    "result": "> 5000 nM"
  },
  {
    "compound": "O=C1CCc2cc(NC(=O)c3ccccc3-c3cccc(F)c3)cc(Cl)c2N1",
    "result": "100 to 250 nM"
  },
  {
    "compound": "Cc1cc(OCCN(C)C(=O)c2cccc(F)c2)cc2c1NC(=O)CC2",
    "result": "1000 to 5000 nM"
  },
  {
    "compound": "CCc1scnc1C(=O)Nc1cc2c(c(C3CC3)c1)NC(=O)CC2",
    "result": "250 to 1000 nM"
  },
  {
    "compound": "O=C1CCc2cc(NC(=O)c3scnc3CC(F)(F)F)cc(Cl)c2N1",
    "result": "250 to 1000 nM"
  },
  {
    "compound": "Cc1cc(NC(=O)c2ccncc2-c2cccc(C#N)c2)cc2c1NC(=O)CC2",
    "result": "1000 to 5000 nM"
  },
  {
    "compound": "CCc1ncsc1C(=O)Nc1cc2c(c(C)c1F)NC(=O)CC2",
    "result": "250 to 1000 nM"
  },
  {
    "compound": "Cc1cc(NC(=O)c2scnc2C)cc2c1NC(=O)CC2",
    "result": "1000 to 5000 nM"
  },
  {
    "compound": "Cc1cc(NC(=O)c2ccncc2-c2cccc(F)c2)cc2c1NC(=O)CC2",
    "result": "250 to 1000 nM"
  },
  {
    "compound": "O=C1CCc2cc(NC(=O)c3ccncc3-c3ccccc3F)ccc2N1",
    "result": "1000 to 5000 nM"
  }
]

====

# assay_target: hALDH1a2 (Homo sapiens)
# protocol_description: Aldh1a2 enzyme inhibition assay (resorufin fluorescence), human enzyme
# details: recombinant enzyme, 20° C., activity level classes
pIC50: −log10 of the molar value.
measured_property: pIC50

[
  {
    "compound": "CCc1ncoc1C(=O)Nc1cc(F)c2c(c1)C1CC1C(=O)N2 (stereo not shown)",
    "result": "< 5.30"
  },
  {
    "compound": "Cc1cc(NC(=O)c2scnc2CC(F)(F)F)cc2c1NC(=O)CC2",
    "result": "6.00 to 6.60"
  },
  {
    "compound": "Cc1cc(NC(=O)c2scnc2CC(F)(F)F)cc2c1NC(=O)C1CC21 (stereo not shown)",
    "result": "> 7.00"
  },
  {
    "compound": "CCc1ncoc1C(=O)Nc1cc(C)c2c(c1)CCC(=O)N2",
    "result": "5.30 to 6.00"
  },
  {
    "compound": "Cc1cc(NC(=O)c2scnc2CC(C)C)cc2c1NC(=O)CC2",
    "result": "5.30 to 6.00"
  },
  {
    "compound": "Cc1cc(NC(=O)c2ccncc2-c2ccc(O)cc2)cc2c1NC(=O)CC2",
    "result": "5.30 to 6.00"
  },
  {
    "compound": "CCc1cnsc1C(=O)Nc1cc(C)c2c(c1)CCC(=O)N2",
    "result": "6.60 to 7.00"
  },
  {
    "compound": "O=C(Nc1cc(Cl)c2c(c1)C1CC1C(=O)N2)c1scnc1CC(F)(F)F (stereo not shown) [Compound 42]",
    "result": "6.00 to 6.60"
  },
  {
    "compound": "O=C1CCc2cc(NC(=O)c3scnc3-c3cccc(F)c3)ccc2N1",
    "result": "5.30 to 6.00"
  },
  {
    "compound": "CCc1scnc1C(=O)Nc1cc(Cl)c2c(c1)CCC(=O)N2",
    "result": "5.30 to 6.00"
  },
  {
    "compound": "CCc1ncsc1C(=O)Nc1cc(Cl)c2c(c1)C1CC1C(=O)N2 (stereo not shown) [Compound 38]",
    "result": "6.60 to 7.00"
  },
  {
    "compound": "Cc1c(F)c(NC(=O)c2ncsc2CC(F)(F)F)cc2c1NC(=O)CC2",
    "result": "6.60 to 7.00"
  },
  {
    "compound": "Cc1c(F)c(NC(=O)c2scnc2CC(F)(F)F)cc2c1NC(=O)CC2",
    "result": "6.00 to 6.60"
  },
  {
    "compound": "O=C(Nc1cc(Cl)c2c(c1)C1CC1C(=O)N2)c1scnc1CC(F)(F)F (stereo not shown) [Compound 37]",
    "result": "6.60 to 7.00"
  },
  {
    "compound": "Cc1cc(NC(=O)c2scnc2C2CC2)cc2c1NC(=O)CC2",
    "result": "6.00 to 6.60"
  },
  {
    "compound": "CCc1ncsc1C(=O)Nc1cc2c(c(C)c1Cl)NC(=O)CC2",
    "result": "6.00 to 6.60"
  },
  {
    "compound": "Cc1c(Cl)c(NC(=O)c2scnc2CC(F)(F)F)cc2c1NC(=O)CC2",
    "result": "6.60 to 7.00"
  },
  {
    "compound": "CCc1csnc1C(=O)Nc1cc(C)c2c(c1)C1CC1C(=O)N2 (stereo not shown)",
    "result": "6.60 to 7.00"
  },
  {
    "compound": "Cc1ccc(-c2cnccc2C(=O)Nc2cc(C)c3c(c2)CCC(=O)N3)cc1",
    "result": "< 5.30"
  }
]
